test system: SARS-CoV-2 (hCoV-19/USA-WA1/2020) in Vero CCL-81 cells; test: microbe, parasite or virus in culture; assay type: cell-based; conditions: Severe acute respiratory syndrome coronavirus 2; Table 3, drugs tested only in Vero CCL-81; MOI 0.1, 48 h; read-out: Vero CCL-81 Cells EC90
metric_name: EC90 (µM)

1) CC#CC(=O)N1CCC[C@H]1c1nc(-c2ccc(C(=O)Nc3ccccn3)cc2)c2c(N)nccn12	70.9
2) CN(Cc1cc(Br)cc(Br)c1N)C1CCCCC1	6.2
3) COC(=O)N[C@H](C(=O)N1CCC[C@H]1c1nc(-c2ccc3c(c2)O[C@@H](c2ccccc2)n2c-3cc3cc(-c4c[nH]c([C@@H]5CCCN5C(=O)[C@@H](NC(=O)OC)C(C)C)n4)ccc32)c[nH]1)C(C)C	12.5

Attribution: paper PMC11053489
